All figures here come from patent US20210246166A1.

Biological target: T1, recombinant human MASP1 active protease (amino acids 297-699, C-terminal His Tag) (human, UniProt P48740 297-699)
T1 sequence: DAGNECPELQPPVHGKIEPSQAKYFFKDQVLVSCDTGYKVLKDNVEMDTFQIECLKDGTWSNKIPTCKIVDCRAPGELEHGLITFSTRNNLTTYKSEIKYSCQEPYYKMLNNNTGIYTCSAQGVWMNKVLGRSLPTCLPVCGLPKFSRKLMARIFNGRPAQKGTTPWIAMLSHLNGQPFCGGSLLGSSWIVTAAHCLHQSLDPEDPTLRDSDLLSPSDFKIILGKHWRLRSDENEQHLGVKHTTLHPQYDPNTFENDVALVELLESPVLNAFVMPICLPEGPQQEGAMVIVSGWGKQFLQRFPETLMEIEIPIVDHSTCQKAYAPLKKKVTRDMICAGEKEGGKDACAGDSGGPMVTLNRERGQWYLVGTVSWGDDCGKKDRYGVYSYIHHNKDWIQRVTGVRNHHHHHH
Test: cell-based or functional assay
Numbered stars: 1 amine (or outer) side, 2 acyl side, 3 side chain; on linkers, the order of the positions; unused ones are H or OH. Bridge positions count the residues as written; N and C are the ends. Square brackets hold non-standard residues; d marks the D form. Ends that are not written are not given here. * marks the point of attachment. X4 = (1S,3R)‑3‑(Amino)cyclopentanecarboxylic acid, O=C([C@H]1CC[C@@H](N[*:1])C1)[*:2]; Oic = O=C(O)[C@@H]1C[C@@H]2CCCC[C@@H]2N1; Abu(4-CN) = N#CCC[C@H](N)C(=O)O; Pen = CC(C)(S)[C@H](N)C(=O)O; Me2Gly = CN(C)CC(=O)*; Sar = CNCC(=O)O
measured metric: human MASP1 IC50 (nM)

[[record]]
binder = "[Sar]ICSRSLP[Oic]I[Pen]IP[X4]-OH (disulfide 3-11; N-terminus assumed; SMILES CC[C@H](C)[C@H](NC(=O)CNC)C(=O)N[C@H]1CSSC(C)(C)[C@@H](C(=O)N[C@H](C(=O)N2CCC[C@H]2C(=O)N[C@@H]2CC[C@H](C(=O)O)C2)[C@@H](C)CC)NC(=O)[C@H]([C@@H](C)CC)NC(=O)[C@@H]2C[C@@H]3CCCC[C@@H]3N2C(=O)[C@@H]2CCCN2C(=O)[C@H](CC(C)C)NC(=O)[C@H](CO)NC(=O)[C@H](CCCNC(=N)N)NC(=O)[C@H](CO)NC1=O) [Example 452: ((N-Me)G)-IC+SRSLP-(Oic)-I-(Pen)+IP-((1S,3R)-3-(Amino)cyclopentanecarboxylic acid)-OH]"
value = 2

[[record]]
binder = "[Sar]ICSRS[Abu(4-CN)]PPI[Pen]IPD-NH2 (disulfide 3-11; N-terminus assumed; SMILES CC[C@H](C)[C@H](NC(=O)CNC)C(=O)N[C@H]1CSSC(C)(C)[C@@H](C(=O)N[C@H](C(=O)N2CCC[C@H]2C(=O)N[C@@H](CC(=O)O)C(N)=O)[C@@H](C)CC)NC(=O)[C@H]([C@@H](C)CC)NC(=O)[C@@H]2CCCN2C(=O)[C@@H]2CCCN2C(=O)[C@H](CCC#N)NC(=O)[C@H](CO)NC(=O)[C@H](CCCNC(=N)N)NC(=O)[C@H](CO)NC1=O) [Example 321: ((N-Me)G)-IC+SRS-(Cnba)-PPI-(Pen)+IPD-NH2]"
value = 22

[[record]]
binder = "[Me2Gly]ICSRSLPPICIPD-NH2 (disulfide 3-11; SMILES CC[C@H](C)[C@H](NC(=O)CN(C)C)C(=O)N[C@H]1CSSC[C@@H](C(=O)N[C@H](C(=O)N2CCC[C@H]2C(=O)N[C@@H](CC(=O)O)C(N)=O)[C@@H](C)CC)NC(=O)[C@H]([C@@H](C)CC)NC(=O)[C@@H]2CCCN2C(=O)[C@@H]2CCCN2C(=O)[C@H](CC(C)C)NC(=O)[C@H](CO)NC(=O)[C@H](CCCNC(=N)N)NC(=O)[C@H](CO)NC1=O) [Example 350: ((N,N-diMe)G)-IC+SRSLPPIC+IPD-NH2]"
value = 28

